The measurements presented in this section are drawn from the supplement of paper PMC10065799.

Can you tell me phosphorylation enrichment for the items I'm about to list?
- Target: Fes (UniProt P07332)
- Sequence (P07332 whole entry, looked up): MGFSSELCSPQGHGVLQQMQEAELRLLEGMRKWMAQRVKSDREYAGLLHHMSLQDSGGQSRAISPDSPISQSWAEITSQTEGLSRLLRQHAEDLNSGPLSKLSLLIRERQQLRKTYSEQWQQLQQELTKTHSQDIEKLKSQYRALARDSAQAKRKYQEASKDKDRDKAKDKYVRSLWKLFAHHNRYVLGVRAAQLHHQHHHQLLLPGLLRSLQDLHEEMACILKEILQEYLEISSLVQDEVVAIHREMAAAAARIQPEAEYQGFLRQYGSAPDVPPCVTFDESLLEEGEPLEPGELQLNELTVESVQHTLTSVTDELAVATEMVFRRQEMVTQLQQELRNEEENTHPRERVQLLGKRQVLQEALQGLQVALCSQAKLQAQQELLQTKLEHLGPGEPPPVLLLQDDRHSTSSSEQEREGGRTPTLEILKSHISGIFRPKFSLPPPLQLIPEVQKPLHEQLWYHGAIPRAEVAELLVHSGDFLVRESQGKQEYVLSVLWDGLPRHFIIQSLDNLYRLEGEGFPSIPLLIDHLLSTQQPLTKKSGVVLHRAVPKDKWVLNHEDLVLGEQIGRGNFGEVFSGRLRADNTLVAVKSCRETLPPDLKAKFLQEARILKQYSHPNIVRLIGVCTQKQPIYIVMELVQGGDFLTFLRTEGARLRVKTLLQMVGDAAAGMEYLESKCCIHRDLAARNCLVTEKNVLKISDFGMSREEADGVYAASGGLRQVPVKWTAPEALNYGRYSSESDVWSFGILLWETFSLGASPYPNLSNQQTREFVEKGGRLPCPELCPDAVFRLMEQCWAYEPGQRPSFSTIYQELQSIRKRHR
- Experiment: phosphorylation enrichment, bacterial display (enrichment ratio); higher = better substrate or ligand; peptides without Tyr show the background;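 note: 11-residue human phosphosite peptides and single-mutation variants displayed on the E. coli surface, counted by deep sequencing, each peptide's frequency after selection divided by its frequency in the unselected input library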;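 note: frequency after pTyr selection over input frequency; kinase dosed for 20-30% of maximal phosphorylation in three min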

State, in one line, measured phosphorylation enrichment of QRTMKYTTATE [MCCC1_Y41_G46E]
1.23

State, in one line, measured phosphorylation enrichment of SHNELYYEEAE [VANGL1_Y344]
1.27

State, in one line, measured phosphorylation enrichment of HRGHLYLAIEF [TEK_Y899_Y897H_YF]
8.12

State, in one line, measured phosphorylation enrichment of VMICAYLLHRG [PTEN_Y138]
1.68

State, in one line, measured phosphorylation enrichment of KGEDFYCVTRH [FHL1_Y149_C153R]
1.2

State, in one line, measured phosphorylation enrichment of RRESQYQENRG [LRCH3_Y354]
0.571

State, in one line, measured phosphorylation enrichment of IPKTWYSAEQF [CD207_Y217]
0.939

State, in one line, measured phosphorylation enrichment of CTTIHYNSMCN [TP53_Y234_Y236S]
0.905

State, in one line, measured phosphorylation enrichment of KSNSDYVDVLP [SH2D1B_Y127_N122K]
0.887

State, in one line, measured phosphorylation enrichment of KPGVNYYFRVS
1.37

State, in one line, measured phosphorylation enrichment of FSAGTYPRMEE [SYCN_Y108_L111M]
0.65

State, in one line, measured phosphorylation enrichment of SSSPTYPDLPF [GLI3_Y168]
0.933

State, in one line, measured phosphorylation enrichment of TGSFTCEAVEL [MTMR14_Y462_Y462C]
1.24

State, in one line, measured phosphorylation enrichment of AAARPYHIQKW [ACSBG1_Y677]
0.675

State, in one line, measured phosphorylation enrichment of KPMDTYFDSTR [DYNC2H1_Y2230_YF]
0.804

State, in one line, measured phosphorylation enrichment of CIILLYIFLKN [STXBP1_Y411_R406C]
0.693

State, in one line, measured phosphorylation enrichment of PHRSIYFSSPK [MPG_Y75_Y71H]
0.859

State, in one line, measured phosphorylation enrichment of KDHRDYKFQPR [SOX9_Y172_P170R_YF]
0.586

State, in one line, measured phosphorylation enrichment of DENWFYTRPAS [RPS19_Y54_A57P]
1.07

State, in one line, measured phosphorylation enrichment of VLRQVYVDFEG [KMT2B_Y1707_R1705Q]
1.28

State, in one line, measured phosphorylation enrichment of EWQQTYTFDSG [JUP_Y20_YF]
0.904

State, in one line, measured phosphorylation enrichment of APQYTYAQGGQ [FLNA_Y1763]
0.643

State, in one line, measured phosphorylation enrichment of RREGVYRNNID [PTEN_Y46_L42R]
0.925

State, in one line, measured phosphorylation enrichment of SDVDLYQVRTA [PSMD9_Y70]
0.738

State, in one line, measured phosphorylation enrichment of INSLKYAFNIS [EIF2B5_Y583_YF]
0.818

State, in one line, measured phosphorylation enrichment of GIVEDYRPPVY [ACVRL1_Y421_F425V]
0.953

State, in one line, measured phosphorylation enrichment of FDAHIYEGRVI [PRKCD_Y64]
0.91

State, in one line, measured phosphorylation enrichment of ADLTEYLSTHY [UQCRC1_Y219]
0.972

State, in one line, measured phosphorylation enrichment of QGFDTYFGYLL [ARSB_Y165_R160Q]
1.64
